Form field: normalized RNA/DNA level without ligand (log10) (one value per entry).
B1: library; a variant is named by its letters at N, in order (parent)
chain: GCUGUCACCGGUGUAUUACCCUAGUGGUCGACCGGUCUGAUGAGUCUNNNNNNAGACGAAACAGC

variants of: B1; experiment: normalized RNA/DNA level without ligand (relative to sTRSVctl = 100) (log10 (% of sTRSVctl)); ligand: hypoxanthine (xanthine aptamer); higher = less ribozyme self-cleavage, higher mRNA level; conditions: HEK293T, reporter: mCherry (pCS4076), ligand present: no

Guide cases for normalized RNA/DNA level without ligand (log10), answers given:
In [3]: df
Out[3]:
   variant  reported_measurement
0   UUUUGC                  1.89
1   GCGCAC                  1.41
2   CUGUUC                  1.86

Q. Recorded normalized RNA/DNA level without ligand (log10) of UCUCAG , please.
A. 1.34

Q. Recorded normalized RNA/DNA level without ligand (log10) of GCACUG , please.
A. 1.45

Q. Recorded normalized RNA/DNA level without ligand (log10) of AACUUG , please.
A. 1.54

Q. Recorded normalized RNA/DNA level without ligand (log10) of ACCCUU , please.
A. 1.92

Q. Recorded normalized RNA/DNA level without ligand (log10) of GCAAUG , please.
A. 1.44

Q. Recorded normalized RNA/DNA level without ligand (log10) of CUGGGG , please.
A. 1.48

Q. Recorded normalized RNA/DNA level without ligand (log10) of ACCAGU , please.
A. 1.8

Q. Recorded normalized RNA/DNA level without ligand (log10) of GCAGAG , please.
A. 1.35

Q. Recorded normalized RNA/DNA level without ligand (log10) of GCCUCC , please.
A. 1.95

Q. Recorded normalized RNA/DNA level without ligand (log10) of CUUAUC , please.
A. 1.99

Q. Recorded normalized RNA/DNA level without ligand (log10) of AGACCA , please.
A. 1.85

Q. Recorded normalized RNA/DNA level without ligand (log10) of UAAAAG , please.
A. 1.63
